# test.protocol: Phosphonate prodrugs in vivo summary (pharmacokinetics)
# condition.description: species not given
Assign Vdβ to each entry below.
Expressed in L/kg, but write only the number.

Q. Return value of Vdβ for input CCOC(=O)[C@H](C)OP(=O)(CCN1CCN(C(=O)c2c3c(c(O)c4ncccc24)C(=O)N(Cc2ccc(F)cc2)C3)CC1)Oc1ccccc1 (stereo partly drawn) , no commentary.
A. 9.1

Q. Return value of Vdβ for input CCOC(=O)[C@H](C)NP(=O)(CO[C@H](C)CNC(=O)c1c2c(c(O)c3ncccc13)C(=O)N(Cc1ccc(F)cc1)C2)Oc1ccccc1 (stereo partly drawn) , no commentary.
A. 4

Q. Return value of Vdβ for input CCOC(=O)[C@H](C)NP(=O)(CCN(C)C(=O)c1c2c(c(O)c3ncccc13)C(=O)N(Cc1ccc(F)cc1)C2)OCC(F)(F)F (stereo partly drawn) , no commentary.
A. 3

Q. Return value of Vdβ for input CCOC(=O)C(C)NP(=O)(CCN(C)C(=O)c1c2c(c(O)c3ncccc13)C(=O)N(Cc1ccc(F)cc1)C2)Oc1ccccc1 (stereo not drawn) , no commentary.
A. 1.8
